Reference source: patent US20240294521A1

Assay: Dynamic Vapor Sorption analysis (DVS), hygroscopicity
Assay type: physicochemical
Conditions: 25° C./0-90% RH change
Counter-ions that a name gives are not always drawn.
measured.attribute: Hygroscopicity by DVS

[[record]]
compound = "C[C@@H]1COCCN1c1cc([C@]2(O)C[C@H]3CC[C@@H](C2)O3)c2cnn(-c3cc[nH]n3)c2n1 [Crystalline form C]"
measured_attribute = "Hygroscopicity by DVS"
endpoint_value = "slightly hygroscopic"

[[record]]
compound = "C[C@@H]1COCCN1c1cc([C@]2(O)C[C@H]3CC[C@@H](C2)O3)c2cnn(-c3cc[nH]n3)c2n1 [Crystalline form B]"
measured_attribute = "Hygroscopicity by DVS"
endpoint_value = "slightly hygroscopic"

[[record]]
compound = "C[C@@H]1COCCN1c1cc([C@]2(O)C[C@H]3CC[C@@H](C2)O3)c2cnn(-c3cc[nH]n3)c2n1 [Crystalline hydrogen sulfate form A]"
measured_attribute = "Hygroscopicity by DVS"
endpoint_value = "slightly hygroscopic"


###

Assay: Water solubility of free form solid states at room temperature
Assay type: physicochemical
Details: water, 25 °C, water, thermodynamic from solid, water, 25° C.; read-out: water solubility
measured.attribute: solubility

[[record]]
compound = "C[C@@H]1COCCN1c1cc([C@]2(O)C[C@H]3CC[C@@H](C2)O3)c2cnn(-c3cc[nH]n3)c2n1 [Crystalline form C]"
endpoint_value = "~50 µg/mL"

